- Target Desc: T1, Full-length human TIGIT on CHO-K1 cells (CHO-K1 human TIGIT) (human, UniProt Q495A1 22-244)
- T1 construct: NCBI XP_024309156.1; the entry includes the signal peptide (limits not recoverable); The strain (high, medium, low) is named under assay; also called high expression strain 1D2; medium expression strain 2D10
- T1 sequence: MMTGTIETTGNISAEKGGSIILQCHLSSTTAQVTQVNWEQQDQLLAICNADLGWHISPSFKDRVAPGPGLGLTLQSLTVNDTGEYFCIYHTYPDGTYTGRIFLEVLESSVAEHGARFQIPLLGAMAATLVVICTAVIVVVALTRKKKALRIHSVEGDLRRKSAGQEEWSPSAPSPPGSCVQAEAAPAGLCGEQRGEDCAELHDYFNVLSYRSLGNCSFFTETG
- Method: cell binding, CHO-K1 human TIGIT high expression strain
Assign pEC50 to each entry below.
// field semantics: pEC50 = negative decimal log of concentration (mol/L)

Per the records, this binder ( TIGIT-006-H4L1 (antibody, V domains shown, Humanized anti-TIGIT antibody) VH: EVQLQESGPGLVKPSETLSLTCAVSGYSMTSDYWNWIRQPPGKKLEWMGYISYSGRTYYNPSLKSRITISRDTSKNQFSLKLSSVTAADTAVYYCARGDYSNYGGAMYDWGQGTTVTVSS VL: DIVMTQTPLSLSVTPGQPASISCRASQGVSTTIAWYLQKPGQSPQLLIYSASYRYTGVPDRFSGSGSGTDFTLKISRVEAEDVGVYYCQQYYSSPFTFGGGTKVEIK ) has pEC50 equal to 10.46

response.value for TIGIT-CHI-070 (antibody, V domains shown, Human-mouse chimeric antibody) VH: QVQLQQPGTELVKPGASVKLSCRASGYTFTNYYMHWVKQRPGRGLEWIGRIDPDSGGSKYNEKFKSKATLTVDKLSSTAYMQLSSLTSEDSAVYYCAREGHYGFYSDYWGQGTTLTVSS VL: DIQMTQSPASLSASVGETVTITCRVSENIYSYLAWYQQKQGKSPQLLVYNAKTLAEGVPSRFSGSGSGTQFSLKINSLQPEDFGNYYCQHHYGNPLTFGAGTKLDLK (field: pEC50) = 10.48
